biological target: T1, bacterially produced human IL-6 (human, UniProt P05231 30-212); assay: SPR; purified Fab
T1 construct: also called bactIL-6; prokaryotic IL-6
koff for assorted binders
Just the number in s⁻¹, nothing appended.

Fab 41E10/35B1 (Fab, V domains shown, VL-shuffled Fab of 17F10) VH: EVQLQESGPGLVKPSQTLSLTCTVSGGSIATSYYAWSWIRQPPGKGLEWMGVIDYDGDTYYKPSLKSRTSISRDTSKNQFSLQLSSVTPEDTAVYYCARAGLGDSYYLGTYYAMDYWGKGTLVTVSS VL: QAVLTQPPSMSGTLGKTLTISCNGTSSDIGSGNYVSWYQQLPGTTPKLLIEGVTTRVSGIPDRFSGSKSDNTASLTISGLQSEDEATYYCASYRETNNVVFGGGTHLTVLG ... 0.00016
Fab 42H1/36A1 (Fab, V domains shown, VL-shuffled Fab of 18C11) VH: EVQLVESGGGLVQPGGSLRLSCAASGFTFSSYAMSWVRQAPGKGLEWVSAINSGGGSTSYADSVKGRFTISRDNAKNTLYLQMNSLKPEDTAVYYCAKEGDTGWKDPMYDYWGQGTQVTVSS VL: AQSALTQPSALSVTLGQTAKITCQGGSLGTRYAHWYQQKPGQAPVLVIYDDDSRPSGIPERFSGSSSGGRATLTISGAQAEDEGDYYCQSADSSGNASVFGGGTHLTVLG ... 0.00015

Asked: For the binder shown here, Fab 41B5/35C1 (Fab, V domains shown, VL-shuffled Fab of 17F10) VH: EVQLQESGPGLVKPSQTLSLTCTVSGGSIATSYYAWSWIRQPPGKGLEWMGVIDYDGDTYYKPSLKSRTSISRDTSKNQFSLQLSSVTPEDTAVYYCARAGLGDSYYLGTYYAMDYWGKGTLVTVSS VL: QSALTQPPSMSGTLGKTLTISCNGTSSDIGSGDYVSWYQQLPGTTPKLLIEGVTTRASGIPDRFSASKSDNTASLTISGLQSEDEATYYCASYRETNNVVFGGGTHLTVLS , give the reported koff.
Given back: 0.00011
